Assay Name: Plasma stability
Format: in vitro ADME
Condition Set: male Sprague-Dawley rat plasma, 6 μL of 1 mM compound (10% DMSO) in 27 μL plasma, 37°C, 0-24 h, UPLC-MS, one-phase decay, mean ± SEM of at least three experiments, read-out: Plasmatic half-life t1/2 (±SEM)
Assay Readout: half-life at 182 µM (min)
Hi! Could you send only the number? It should be in min, unit omitted.

Q: Tell me the measured half-life at 182 µM of CC[C@H](C)[C@H](NC(=O)[C@H](Cc1ccc(O)cc1)NC(=O)[C@@H](NC(=O)[C@H](CCCNC(=N)N)NC(=O)CNC)C(C)C)C(=O)N[C@@H](Cc1cnc[nH]1)C(=O)N1CCC[C@H]1C(=O)N[C@H](C)C(=O)O [TRV027, reference compound] , please.
Result: 964

Q: What value of measured half-life at 182 µM is listed for CC[C@H](C)[C@H](NC(=O)[C@H](Cc1ccc(O)cc1)NC(=O)[C@@H](NC(=O)[C@H](CCCNC(=N)N)NC(=O)[C@@H](N)CC(=O)O)C(C)C)C(=O)N[C@@H](Cc1c[nH]cn1)C(=O)N1CCC[C@H]1C(=O)N[C@@H](Cc1ccc(OC)cc1)C(=O)O [compound 11] ?
Result: 33

Q: Looking for the measured half-life at 182 µM of CC[C@H](C)[C@H](NC(=O)[C@H](Cc1ccc(O)cc1)NC(=O)[C@@H](NC(=O)[C@H](CCCNC(=N)N)NC(=O)[C@@H](N)CC(=O)O)C(C)C)C(=O)N[C@@H](Cc1c[nH]cn1)C(=O)N1CCC[C@H]1C(=O)N[C@@H](Cc1ccc(OCc2ccccc2)cc1)C(=O)O [compound 12] , can you help?
Result: 32

Q: Data request, read-out half-life at 182 µM, for CC[C@H](C)[C@H](NC(=O)[C@H](Cc1ccc(O)cc1)NC(=O)[C@@H](NC(=O)[C@H](CCCNC(=N)N)NC(=O)[C@@H](N)CC(=O)O)C(C)C)C(=O)N[C@@H](Cc1c[nH]cn1)C(=O)N1CCC[C@H]1C(=O)N[C@@H](Cc1ccccc1Cl)C(=O)O [29a]
Result: 32
